# Assay Info: gradient 5% acetonitrile 3 min, to 50% in 2 min, to 85% in 15 min, held 3 min, 100 µL/min
# Condition Label: column: Zorbax Extend-C18 2.1 x 50 mm; eluents: water / acetonitrile, 0.1% formic acid
Endpoint: RP-LC retention time (s)
Answers are plain numbers, in s.

CCNc1ncnc2sc3c(c12)CCN(Cc1ccncc1)C3 :: 659
Cc1nc2ccc(NC(=O)c3cccnc3)cc2c(=O)n1-c1ccc(F)cc1 :: 623

Working through the 7 molecules below one at a time, give RP-LC retention time for each.
1. CCOCCCNC(=O)N1CCN(c2nc3ccccc3n(Cc3ccc(C)cc3)c2=O)CC1
2. CCOc1ccc(C(=O)N2CCCC2c2nc(-c3ccc(OC)cc3)no2)cc1OCC (centres undefined)
3. COC(=O)CCNC(=O)C1c2ccccc2C(=O)N(CC(C)C)C12CCCCC2 (centres undefined)
4. CCC(=O)NCCc1csc(C2CCN(C(=O)CC3CCCCC3)CC2)n1
5. COc1cccc(C2Cn3nnc(-c4nc(-c5ccc(SC)cc5)no4)c3CO2)c1 (centres undefined)
6. CCOc1ccc(-c2noc(Cn3nc(-c4ccc5c(c4)OCO5)ccc3=O)n2)cc1
7. COc1ccc(CN2CCc3nc(N4CCCC4)ncc3C2)c(OC)c1

A.
1010
982
842
765
1200
1130
619

---

# Assay Info: gradient 5% acetonitrile 3 min, to 50% in 2 min, to 85% in 15 min, held 3 min, 100 µL/min
# Condition Label: column: Zorbax Extend-C18 2.1 x 50 mm; eluents: water / acetonitrile, 0.1% formic acid
Hi, to clarify the labels: class 1 covers RP-LC retention time from 700 s upward, class 0 covers anything below 700 s.

Solved cases below.
COc1cccc(CNC(=O)C2CCCN2S(=O)(=O)c2cc3c(cc2Cl)NC(=O)CO3)c1 (stereo not given) :: class 1
CCc1ccccc1S(=O)(=O)N1CCc2c(c(-c3nc(C4CC4)no3)nn2C)C1 :: class 1
Cc1ccccc1CNC(=O)CS(=O)Cc1cnn(-c2ccccc2)c1-n1cccc1 (stereo not given) :: class 1
CC1CCN(S(=O)(=O)c2ccc(-c3nnc(C(=O)NCCN(C)C)o3)cc2)CC1 :: class 0
COc1cc(NC(=O)N2CCC(C)(C(=O)NCc3ccc(C)cc3)CC2)cc(OC)c1OC :: class 1
COc1ccc(N2CCN(C(=O)C3(c4ccc(NC(=O)C5CC5)cc4)CCC3)CC2)cc1 :: class 1
CCOc1ccc2ncc(C(=O)c3ccc(C)cc3)c(N3CCN(C)CC3)c2c1 :: class 0
CC(C)n1cnc2cc(CNC(=O)Cc3ccccc3F)ccc21 :: class 0
COCCNC(=O)c1cccnc1N1CCNC(c2ccccc2)C1 (stereo not given) :: class 0
Cc1nc(-c2noc(-c3ccncc3)n2)cn1CC(=O)NCc1cccs1 :: class 0

Q. Evaluate `O=C(NCCc1cccs1)c1cc2n(n1)CCCN(Cc1ccc(F)cc1)C2=O` : RP-LC retention time at minimum 700 s?
A. class 1

Q. What about this molecule? `CN(C(=O)Cn1nc(Cc2ccncc2)c2ccccc2c1=O)C1CCCCC1`
A. class 0

Q. Please give the result for `CCc1nc2cc(-c3noc(Cc4c(F)cccc4Cl)n3)ccc2o1` too.
A. class 1

---

# Assay Info: gradient 5% acetonitrile 3 min, to 50% in 2 min, to 85% in 15 min, held 3 min, 100 µL/min
# Condition Label: column: Zorbax Extend-C18 2.1 x 50 mm; eluents: water / acetonitrile, 0.1% formic acid
Endpoint: RP-LC retention time (s)
Numbers only, in s.

A selection of reference data follows.
O=C(NCCn1ncccc1=O)c1ccc(S(=O)(=O)N2CCOCC2)cc1 :: 572
CCc1noc(NC(C)=O)c1-c1ccc(C)c(S(=O)(=O)Nc2ccc(OC)c(Cl)c2)c1 :: 1300
Cc1nc(CC(=O)NC(C)c2ccccc2)sc1C(=O)NCc1ccccc1 (centres undefined) :: 820

// batch mode: one RP-LC retention time value per listed entry
1. O=C(c1ccc(Cl)cc1)N1CCN=C1N1CCCCC1
2. CCCNC(=O)C1CCN(c2nc3ccsc3c(=O)n2Cc2ccc(F)cc2)CC1
3. CC1(C)COc2ccc(NC(=O)c3cccc(Br)c3)cc2NC1=O
4. COc1ccc(CNC(=O)c2nnc(-c3ccc(S(=O)(=O)N(C)C)cc3)o2)c(OC)c1
5. CCC(=O)NCc1cnn(-c2ccc(C(=O)Nc3ccc4c(c3)OCCO4)cc2)c1
6. COc1ccc(C(=O)NCc2ccc3c(c2)ncn3C(C)C)cn1
7. Cc1ccc2nc(C)cc(C(=O)NC3CC3)c2c1
8. COc1ccc(Cl)c2c(=O)c3c([nH]c12)CCN(CC(=O)Nc1c(C)cccc1C)C3

A.
640
807
892
865
702
597
586
621

Value source: the METLIN SMRT retention time set (Domingo-Almenara et al. 2019)
